B1: library; a variant is named by its letters at N, in order (parent)
chain: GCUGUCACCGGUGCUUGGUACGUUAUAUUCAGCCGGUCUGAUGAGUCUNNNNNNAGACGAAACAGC

Variants of: B1
method_description: normalized RNA/DNA level without ligand (relative to sTRSVctl = 100) (log10 (% of sTRSVctl)); HEK293T overexpressing SLC46A1; higher = less ribozyme self-cleavage, higher mRNA level
condition: without (6R,S)-folinic acid; ligand present: no
What normalized RNA/DNA level without ligand (log10) was measured for each of the following?
Answer with the value's number alone.

(Q) // lookup normalized RNA/DNA level without ligand (log10) for UGGCGA
(A) 1.98

(Q) Cool, now GCCUGA
(A) 2.04

(Q) Cool, now GCUAAA
(A) 1.99

(Q) Cool, now UUCGGA
(A) 1.96

(Q) Cool, now AGCUAA
(A) 2

(Q) Cool, now CGAUGG
(A) 1.93

(Q) Cool, now GGUAUU
(A) 2

(Q) Cool, now UCUAAC
(A) 2.01

(Q) Cool, now CUACAG
(A) 1.98

(Q) Cool, now UUGGGG
(A) 1.82

(Q) Cool, now UGGCAG
(A) 1.76
